Test system: KB
TEST DETAILS: Cytotoxicity against human KB cells after 72 hrs
Format: functional, cell-based
Recorded IC50 by entry
Response body: numeric value in µM, unit text excluded.

Example results:
| COMPOUND | ENDPOINT UNIT | IC50 |
| --- | --- | --- |
| CC(=O)O[C@@]12CO[C@@H]1C[C@H](O)[C@@]1(C)C(=O)[C@H](O)C3=C(C)[C@@H](OC(=O)[C@H](O)[C@@H](NC(=O)OC(C)(C)C)c4ccccc4)C[C@@](O)([C@@H](OC(=O)c4ccccc4)[C@H]21)C3(C)C [DOCETAXEL] | µM | 0.29 |
| C=C1C(=O)[C@]23CC[C@@H](C(=C)C)[C@]4(C)CCC(=O)O[C@@]42C[C@H]1C[C@@H]3OC(C)=O [CROTOBARIN] | µM | 2.5 |

With those in mind, consider the next compound.
Lab note: measured IC50 of C=C1C(=O)[C@@]23CC[C@@H]1C[C@@]21OC(=O)CC[C@@]1(C)[C@H](C(=C)C)CC3 [CROTOGOUDIN] was 1.5
